Notes on IC50 obtained with HCV polymerase (Hepatitis C virus genotype 1b, UniProt Q9WMX2).
One number for each entry, in nM.

Record excerpt, results attached:
O=C(O)c1sc(-c2ccccc2)cc1N1C(=O)CN(S(=O)(=O)c2ccc(N3CCCCC3)nc2)C[C@H]1C1CCCCC1 :: 1
CC(C)c1ccc(S(=O)(=O)N2CC(=O)N(c3cc(-c4ccccc4)sc3C(=O)O)C(C3CCCCC3)C2)cc1 (stereo not drawn) :: 4

Below are 4 molecules. Give each one its IC50.
1. COc1ccc(-c2cc(N3C(=O)CCCC3C3CCCCC3)c(C(=O)O)s2)cc1 (stereo not drawn)
2. COC1CCN(c2ccc(S(=O)(=O)N3CC(=O)N(c4cc(-c5ccccc5)sc4C(=O)O)C(C4CCCCC4)C3)cn2)CC1 (stereo not drawn)
3. COc1ccc(S(=O)(=O)N2CC(=O)N(c3cc(C#CC(C)(C)C)sc3C(=O)O)[C@H](C3CCCCC3)C2)cc1
4. Cn1ccc(S(=O)(=O)N2CC(=O)N(c3cc(C#CC(C)(C)C)sc3C(=O)O)[C@H](C3CCCCC3)C2)n1

1: 90; 2: 2; 3: 1; 4: 1

Below are 8 molecules. Give each one its IC50.
1. O=C(O)c1sc(-c2ccc(F)cc2)cc1N1C(=O)CN(S(=O)(=O)c2ccc(N3CCCC3)nc2)C[C@H]1C1CCCCC1
2. O=C(O)c1sc(-c2ccccc2)cc1N1C(=O)CN(S(=O)(=O)c2ccc(N3CCC(F)(F)CC3)nc2)CC1C1CCCCC1 (stereo not drawn)
3. CC(C)(C)C#Cc1cc(N2C(=O)CN(S(=O)(=O)c3ccc(F)cc3)C[C@H]2C2CCCCC2)c(C(=O)O)s1
4. C[C@@H](O)CC[C@]1(C)OC[C@@H](C2CCCCC2)N(c2cc(C#CC(C)(C)C)sc2C(=O)O)C1=O
5. CC(C)(C)C#Cc1cc(N2C(=O)CN(S(=O)(=O)c3ccc(N4CCOCC4)nc3)CC2C2CCCCC2)c(C(=O)O)s1 (stereo not drawn)
6. CC(C)(C)C#Cc1cc(N2C(=O)C(CCO)(CCO)OC[C@H]2C2CCCCC2)c(C(=O)O)s1
7. CC(=O)N1CCN(c2ccc(S(=O)(=O)N3CC(=O)N(c4cc(-c5ccccc5)sc4C(=O)O)C(C4CCCCC4)C3)cn2)CC1 (stereo not drawn)
8. CC(C)(C)C#Cc1cc(N2C(=O)C(CCO)CC[C@H]2C2CCCCC2)c(C(=O)O)s1 (stereo partly drawn) [Compound 342]

[1, 5, 2, 6, 3820, 10, 3, 18]

Below are 3 molecules. Give each one its IC50.
1. Cc1noc(C)c1S(=O)(=O)N1CC(=O)N(c2cc(-c3ccccc3)sc2C(=O)O)C(C2CCCCC2)C1 (stereo not drawn)
2. O=C(O)c1sc(-c2ccccc2)cc1N1C(=O)CN(S(=O)(=O)c2ccc(N3CCCC3)nc2)C[C@H]1C1CCCCC1
3. O=C(O)c1sc(-c2ccc(F)cc2)cc1N1C(=O)CN(S(=O)(=O)c2ccc(N3CCC(F)(F)C3)nc2)C[C@H]1C1CCCCC1

241
2.33
1

Below are 5 molecules. Give each one its IC50.
1. O=C(O)c1sc(-c2ccc(F)cc2)cc1N1C(=O)CN(S(=O)(=O)c2ccc(N3CC4CCC(C3)O4)nc2)C[C@H]1C1CCCCC1
2. CC(C)(C)C#Cc1cc(N2C(=O)[C@](C)(CC(O)CO)OC[C@H]2C2CCCCC2)c(C(=O)O)s1 (stereo partly drawn)
3. CC(C)N1CCN(c2ccc(S(=O)(=O)N3CC(=O)N(c4cc(-c5ccccc5)sc4C(=O)O)[C@H](C4CCCCC4)C3)cn2)CC1
4. CS(=O)(=O)N1CC(=O)N(c2cc(-c3ccccc3)sc2C(=O)O)C(C2CCCCC2)C1 (stereo not drawn)
5. CC(C)(C)C#Cc1cc(N2C(=O)CN(S(=O)(=O)c3c[nH]cn3)C[C@H]2C2CCCCC2)c(C(=O)O)s1

1. 1
2. 4
3. 1
4. 67
5. 2
